Biological target: T1, human EphA3 (Homo sapiens, UniProt P29320)
T1 construct: a protein of the extracellular region of each human Eph receptor fused with the SEAP protein and the His tag; made in house; host or cells: Expi293F cells (culture supernatant)
T1 sequence (P29320 21-541 limits assumed): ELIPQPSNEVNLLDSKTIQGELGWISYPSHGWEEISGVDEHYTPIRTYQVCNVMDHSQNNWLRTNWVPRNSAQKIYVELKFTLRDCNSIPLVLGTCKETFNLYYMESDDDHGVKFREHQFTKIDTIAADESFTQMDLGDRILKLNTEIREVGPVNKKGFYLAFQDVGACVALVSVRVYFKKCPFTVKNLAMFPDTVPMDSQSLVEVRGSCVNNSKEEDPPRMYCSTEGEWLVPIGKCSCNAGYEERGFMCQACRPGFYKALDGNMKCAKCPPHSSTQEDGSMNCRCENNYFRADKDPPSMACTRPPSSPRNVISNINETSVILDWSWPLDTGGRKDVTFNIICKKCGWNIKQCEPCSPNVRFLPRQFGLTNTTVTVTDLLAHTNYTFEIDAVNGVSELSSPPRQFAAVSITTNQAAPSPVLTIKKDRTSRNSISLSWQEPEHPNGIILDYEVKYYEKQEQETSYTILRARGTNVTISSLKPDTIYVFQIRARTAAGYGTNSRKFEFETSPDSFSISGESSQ
Test: Selectivity ELISA of humanized antibodies for human Eph receptor
Format: binding
Settings: coated protein 1 nM
ENDPOINT NAME: hEphA3-SEAP-: absorbance at 450 nm, percentage with respect to hEphA4-SEAP-His as 100% (%)

MOLECULE	MEASURED VALUE
69 (antibody, V domains shown, synthetic humanized antibody heavy chain variable region sequence; synthetic humanized antibody light chain variable region sequence) VH: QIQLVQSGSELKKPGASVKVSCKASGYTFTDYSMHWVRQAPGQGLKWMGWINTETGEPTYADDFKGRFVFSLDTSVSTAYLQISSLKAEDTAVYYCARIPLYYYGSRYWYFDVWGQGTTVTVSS VL: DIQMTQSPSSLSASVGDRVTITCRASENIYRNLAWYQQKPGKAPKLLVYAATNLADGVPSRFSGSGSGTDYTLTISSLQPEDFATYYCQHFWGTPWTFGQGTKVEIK	5.4
